System: human coronary artery smooth muscle cells (CASMC)
method.notes: Inhibition of smooth muscle cell proliferation, CASMC
Assay type: cell-based
recorded.conditions: 144 h, CASMC cell line, incubated six days, Coulter cell count normalized to DMSO-treated controls, read-out: IC50 (concentration of test compound producing a 50% inhibition of cell proliferation)
reported.property: IC50 (nM)

compound="Cn1cncc1C(N)(c1ccc(Cl)cc1)c1ccc2c(c1)c(-c1cccc(Cl)c1)cc(=O)n2C (single isomer, unassigned; (+)) [Co. No. 75]" reported_property=IC50 assay_value=16

* * *

Test system: rat A10 arterial smooth muscle cells
method.notes: Inhibition of smooth muscle cell proliferation, A10 cells
Assay type: cell-based
recorded.conditions: 144 h, A10 cell line, incubated six days, Coulter cell count normalized to DMSO-treated controls, read-out: IC50 (concentration of test compound producing a 50% inhibition of cell proliferation)
pIC50: −log10 of the molar value.
reported.property: pIC50

compound="Cn1cncc1C(N)(c1ccc(Cl)cc1)c1ccc2c(c1)c(-c1cccc(Cl)c1)cc(=O)n2C (single isomer, unassigned; (+))" reported_property=pIC50 assay_value=7.85
